These entries and their values trace back to patent US20090111736A1.

test: In vitro mucosal-to-serosal vancomycin transport, modified Ussing chambers, jejunum; assay type: in vitro ADME, rat; conditions: male, rat, pH 7.4, 5 mg/ml; jejunum; 1.0 mM sodium decanoate in serosal chamber
Counter-ions that a name gives are not always drawn.
property name: Papp at 5 mg/ml (×10⁻⁶ cm/s)

- molecule: "CN[C@H](CC(C)C)C(=O)N[C@H]1C(=O)N[C@@H](CC(N)=O)C(=O)N[C@H]2C(=O)N[C@H]3C(=O)N[C@H](C(=O)N[C@H](C(=O)O)c4cc(O)cc(O)c4-c4cc3ccc4O)[C@H](O)c3ccc(c(Cl)c3)Oc3cc2cc(c3O[C@@H]2O[C@H](CO)[C@@H](O)[C@H](O)[C@H]2O[C@H]2C[C@](C)(N)[C@H](O)[C@H](C)O2)Oc2ccc(cc2Cl)[C@H]1O [Vancomycin hydrochloride]"
  property name: "Papp at 5 mg/ml"
  reported result: 0.6

====

experiment: In vitro mucosal-to-serosal vancomycin transport, modified Ussing chambers, duodenum; format: in vitro ADME, rat; settings: male, rat, pH 7.4, 5 mg/ml, HEPES buffer alone
Where a name gives a salt, the structure may show the parent alone.
property name: Papp at 2.5 hr, 5 mg/ml

- compound: "CN[C@H](CC(C)C)C(=O)N[C@H]1C(=O)N[C@@H](CC(N)=O)C(=O)N[C@H]2C(=O)N[C@H]3C(=O)N[C@H](C(=O)N[C@H](C(=O)O)c4cc(O)cc(O)c4-c4cc3ccc4O)[C@H](O)c3ccc(c(Cl)c3)Oc3cc2cc(c3O[C@@H]2O[C@H](CO)[C@@H](O)[C@H](O)[C@H]2O[C@H]2C[C@](C)(N)[C@H](O)[C@H](C)O2)Oc2ccc(cc2Cl)[C@H]1O [Vancomycin hydrochloride]"
  property name: "Papp at 2.5 hr, 5 mg/ml"
  reported result: "2 nm/s"

====

assay: In vitro mucosal-to-serosal vancomycin transport, modified Ussing chambers, jejunum; format: in vitro ADME, rat; conditions: male, rat, pH 7.4, 5 mg/ml; jejunum; HEPES buffer containing 20% w/w Bile salts
Where a name gives a salt, the structure may show the parent alone.

- compound: "CN[C@H](CC(C)C)C(=O)N[C@H]1C(=O)N[C@@H](CC(N)=O)C(=O)N[C@H]2C(=O)N[C@H]3C(=O)N[C@H](C(=O)N[C@H](C(=O)O)c4cc(O)cc(O)c4-c4cc3ccc4O)[C@H](O)c3ccc(c(Cl)c3)Oc3cc2cc(c3O[C@@H]2O[C@H](CO)[C@@H](O)[C@H](O)[C@H]2O[C@H]2C[C@](C)(N)[C@H](O)[C@H](C)O2)Oc2ccc(cc2Cl)[C@H]1O [Vancomycin hydrochloride]"
  Papp at 5 mg/ml (×10⁻⁶ cm/s): 3.67

====

assay: In vitro mucosal-to-serosal vancomycin transport, modified Ussing chambers, jejunum; assay type: in vitro ADME, rat; conditions: male, rat, pH 7.4, 5 mg/ml; jejunum; HEPES buffer containing 5% w/w Polysorbate-80 + 5% w/w Labrasol ®
Where a name gives a salt, the structure may show the parent alone.
property name: Papp at 5 mg/ml (×10⁻⁶ cm/s)

- molecule: "CN[C@H](CC(C)C)C(=O)N[C@H]1C(=O)N[C@@H](CC(N)=O)C(=O)N[C@H]2C(=O)N[C@H]3C(=O)N[C@H](C(=O)N[C@H](C(=O)O)c4cc(O)cc(O)c4-c4cc3ccc4O)[C@H](O)c3ccc(c(Cl)c3)Oc3cc2cc(c3O[C@@H]2O[C@H](CO)[C@@H](O)[C@H](O)[C@H]2O[C@H]2C[C@](C)(N)[C@H](O)[C@H](C)O2)Oc2ccc(cc2Cl)[C@H]1O [Vancomycin hydrochloride]"
  property name: "Papp at 5 mg/ml"
  reported result: 0.53
